# System: PC-3
# ASSAY_OVERVIEW: Cytotoxicity against human PC3 cells after 72 hrs by MTT assay
# Type: functional
# RECORDED_CONDITIONS: PC-3, 72 h
TGI by entry:

ENTRY_SMILES | CENSORING_OPERATOR | TGI, µM
O=C(/N=C(/NC(=O)c1sccc1Cl)[Se]Cc1ccccc1)c1sccc1Cl | > | 100
O=C(/N=C(/NC(=O)c1csc([N+](=O)[O-])c1)[Se]Cc1ccccc1)c1csc([N+](=O)[O-])c1 | = | 69.2
O=C(/N=C(/NC(=O)c1ccco1)[Se]Cc1ccccc1)c1ccco1 | = | 57.6

Attribution: ChEMBL document CHEMBL1649384
